- System: PFTAIRE2
- conditionNotes: concentration: 1 μM, replicates: in singlicate; n = 1;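 note: KINOMEscan kinase panel screen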
attributeMeasured: %Inh (%)
Value expressed in %; do not type the unit.

>  <compound>
COc1ccc(CNC(=O)NC2CCN(c3ccnc(Nc4ccc(F)cc4)n3)CC2)cc1

>  <%Inh / %>
0

$$$$
>  <compound>
Cc1cccc(NC(=O)Nc2ccc(Oc3ncnc4ccn(C)c34)cc2)c1

>  <%Inh / %>
0

$$$$
>  <compound>
O=C(Nc1ccccc1F)NC1CCN(c2ccnc(Nc3ccc(F)cc3)n2)CC1

>  <%Inh / %>
5

$$$$
>  <compound>
Cl.NC(=O)c1cccc(Nc2nccc(Nc3ccc(Oc4c(Cl)cccc4Cl)c(Cl)c3)n2)c1

>  <%Inh / %>
15

$$$$
>  <compound>
Nc1ncc(-c2cccnc2)c2scc(-c3ccc4c(c3)CCN4C(=O)Cc3ccccc3)c12

>  <%Inh / %>
33

$$$$

GET /values?readout=%Inh&item= `CCn1c(-c2nonc2N)nc2c(C#CC(C)(C)O)ncc(OCCCCN)c21.O=C(O)C(F)(F)F.O=C(O)C(F)(F)F`
6

GET /values?readout=%Inh&item= `Fc1ccc(-c2ncn(C3CCNCC3)c2-c2ccnc(Oc3ccc(-c4ccccc4)cc3)n2)cc1`
13

GET /values?readout=%Inh&item= `CN(C)S(=O)(=O)c1cc(-c2ccc3nccc(-c4cccc(S(N)(=O)=O)c4)c3c2)cnc1N`
31

GET /values?readout=%Inh&item= `COc1cc2c(cc1OCCN1CCNCC1)ncc1c3ccc(C#N)cc3[nH]c21`
53

GET /values?readout=%Inh&item= `c1ccc(-c2n[nH]cc2Nc2ccnc3ccccc23)nc1`
16

GET /values?readout=%Inh&item= `Cc1ccc(F)c(C(=O)Nc2cccc(-c3nn4ccccc4c3-c3ccnc(Nc4cccc(F)c4)n3)c2)c1F`
18

GET /values?readout=%Inh&item= `O=C(Nc1n[nH]c2nc(-c3ccc(O)cc3)ccc12)C1CC1`
28

GET /values?readout=%Inh&item= `Nc1ncc(-c2ccc3nccc(-c4ccncc4)c3c2)cc1S(=O)(=O)N1CCOCC1`
39

###

%Inh reference
- Test system: FGFR4
- conditionNotes: concentration: 1 μM, replicates: in singlicate; n = 1
Value expressed in %; do not type the unit.

>  <compound>
NCCCC(NC(=O)c1cc(Br)c(-c2ccnc3[nH]ccc23)s1)c1ccccc1.O=C(O)C(F)(F)F.O=C(O)C(F)(F)F (centres unmarked)

>  <%Inh [%]>
18

$$$$

Below: the item to evaluate.
GET /values?readout=%Inh&item= `Cl.NC(=O)c1cccc(Nc2nccc(Nc3ccc(Oc4c(Cl)cccc4Cl)c(Cl)c3)n2)c1`
0

###

- Test system: PKAC-beta
- Construct: gene PRKACB
- conditionNotes: concentration: 1 μM, replicates: in singlicate; n = 1
attributeMeasured: %Inh (%)
Value expressed in %; do not type the unit.

Below, 6 compounds whose answers are already recorded.
>  <compound>
CCc1ccc(-c2ccc3c(c2)-c2c(cnn2C)S(=O)(=O)N3C)cc1

>  <observedValue>
12

$$$$
>  <compound>
COc1ccc(CNC(=O)NC2CCN(c3ccnc(Nc4ccc(F)cc4)n3)CC2)cc1

>  <observedValue>
0

$$$$
>  <compound>
COc1cccc(NC(=O)NC2CCN(c3ccnc(Nc4cc(OC)c(OC)c(OC)c4)n3)C2)c1 (centres unmarked)

>  <observedValue>
0

$$$$
>  <compound>
O=C(NC1CCN(c2ccnc(Nc3ccc(F)cc3)n2)C1)c1cc2ccccc2s1 (centres unmarked)

>  <observedValue>
0

$$$$
>  <compound>
c1ccc(-c2n[nH]cc2Nc2ccnc3ccccc23)nc1

>  <observedValue>
0

$$$$
>  <compound>
Cn1cc(-c2ccc3c(c2)CCN3C(=O)Cc2cccc(Cl)c2)c2c(N)ncnc21

>  <observedValue>
5

$$$$

GET /values?readout=%Inh&item= `COc1ccc(-c2coc3ccc(-c4nnc(SCc5ccc(OC)c(C(F)(F)F)c5)o4)cc23)cc1`
3

GET /values?readout=%Inh&item= `Cc1ccc(F)c(C(=O)Nc2cccc(-c3nn4ccccc4c3-c3ccnc(Nc4cccc(F)c4)n3)c2)c1F`
29

Value source: paper PMC5540273
